Measured values drawn from patent US20230265198A1 for this set.

Target: T1, neuropilin-1 (NRP1) on HEK293 cells overexpressing NRP1 (UniProt O14786 22-923, limits assumed)
T1 construct: whole, on cells
Assay: flow cytometry, HEK293-NRP1 vs HEK293
Catalogue of 100 nM FACS (MFI Ratio) readings, one per entry.

{"BINDER": "NRP1-110 (VHH) VHH: EVQLVESGGGLVQPGGSLRLSCAASGRTFSNYSMGWFRQAPGKEREFVASIWWTFDAPYYADSVKGRFTISADNSKNTAYLQMNSLKPEDTAVYYCAKWDGLGTLWGQGTLVTVSS", "100 nM FACS (MFI Ratio)": 3.3}
{"BINDER": "NRP1-100 (VHH) VHH: EVQLVESGGGLVQPGGSLRLSCAASGRSVSTYGMGWFRQAPGKERELVASISRFGRTNYADSVKGRFTISADNSKNTAYLQMNSLKPEDTAVYYCAARRIVNVEGAYRDWGQGTLVTVSS", "100 nM FACS (MFI Ratio)": 0.6}
{"BINDER": "NRP1-56 (VHH) VHH: EVQLVESGGGLVQPGGSLRLSCAASGRTFSSYRMGWFRQAPGKEREFVASIRSSGTTYADSVKGRFTISADNSKNTAYLQMNSLKPEDTAVYYCARDTLGRASSSTDWGQGTLVTVSS", "100 nM FACS (MFI Ratio)": 5.4}
{"BINDER": "NRP1-292 (antibody, IgG2, V domains shown) VH: EVQLLESGGGLVQPGGSLRLSCAASGFTLSSYAMAWVRQAPGKGLEWVSAIRGSGGTTYYADSVKGRFTISRDNSKNTLYLQMNSLRAEDTAVYYCARRGRAPRMVRGVVNRRPYYFDYWGQGTLVTVSS VL: DIQMTQSPSSLSASVGDRVTITCRTSQSIATYLNWYQQKPGKAPKLLIYGASRSQSGVPSRFSGSGSGTDFTLTISSLQPEDFATYYCQQSYFTPPTFGGGTKVEIK", "100 nM FACS (MFI Ratio)": 0.4}
